Listing of entries alongside the reported viability at 72 h, 10 µM.
Assay: Cytotoxicity to uninfected MDCK cells (MTT method)
Details: dog, mdck cells
MEASUREMENT_LABEL: viability at 72 h, 10 µM (%)

>>> reported("CCCCCCCCCC(=O)N[C@H](CN1CCC(O)CC1)[C@H](O)c1ccccc1 (relative stereo) [drawing 9 (DL-threo)]")
100
>>> reported("CCCCCCCCCC(=O)N[C@@H](CN(CC)CC)[C@H](O)c1ccccc1 (relative stereo) [drawing 10 (DL-erythro)]")
100
>>> reported("CCCCCCCCCC(=O)N[C@@H](CN1CCC(O)CC1)[C@H](O)c1ccccc1 (relative stereo) [drawing 9 (DL-erythro)]")
100

* * *

Test system: A/PR/8/34 strain influenza virus
Assay: microbe, parasite or virus in culture
Assay type: cell-based, influenza virus A/PR/8/34
Conditions: unidentified influenza virus, PR/8, MDCK, 72 h, read-out: Virus growth inhibition (%)
Examples of compounds with documented inhibition at 10 µM follow.
MEASUREMENT_LABEL: inhibition at 10 µM (%)

>>> reported("CCCCCCCCCC(=O)N[C@@H](CN1CCCCC1)[C@H](O)c1ccccc1 (relative stereo) [drawing 8 (DL-erythro)]")
99.6
>>> reported("CCCCCCCCCC(=O)N[C@H](CN1CCC(O)CC1)[C@H](O)c1ccccc1 (relative stereo) [drawing 9 (DL-threo)]")
87.3
>>> reported("CCCCCCCCCC(=O)NC(CN1CCCCC1CO)C(O)c1ccccc1 (mixture of isomers) [drawing 11 (Mixture of isomers)]")
99.7
>>> reported("CCCCCCCCCC(=O)N[C@H](CN1CCCCC1)[C@H](O)c1ccccc1 (relative stereo) [drawing 8 (DL-threo)]")
93.9
>>> reported("CCCCCCCCCC(=O)N[C@H](CN1CCOCC1)[C@H](O)c1ccccc1 [D-threo-PDMP, reference compound]")
97.1
>>> reported("CCCCCCCCCC(=O)N[C@@H](CN1CCC(O)CC1)[C@H](O)c1ccccc1 (relative stereo) [drawing 9 (DL-erythro)]")
100
>>> reported("CCCCCCCCCC(=O)N[C@@H](CN(CC)CC)[C@H](O)c1ccccc1 (relative stereo) [drawing 10 (DL-erythro)]")
88.5

* * *

Assay: Cytotoxicity to uninfected MDCK cells (MTT method)
Conditions: dog, mdck cells
Listed next: entries and their corresponding viability at 72 h, 10 µM.
MEASUREMENT_LABEL: viability at 72 h, 10 µM

>>> reported("CCCCCCCCCC(=O)NC(CN1CCCCC1CO)C(O)c1ccccc1 (mixture of isomers) [drawing 11 (Mixture of isomers)]")
"80 to 100%"
>>> reported("CCCCCCCCCC(=O)N[C@@H](CN1CCCCC1)[C@H](O)c1ccccc1 (relative stereo) [drawing 8 (DL-erythro)]")
"80 to 100%"
>>> reported("CCCCCCCCCC(=O)N[C@H](CN1CCOCC1)[C@H](O)c1ccccc1 [D-threo-PDMP, reference compound]")
"60 to 80%"
>>> reported("CCCCCCCCCC(=O)N[C@H](CN1CCCCC1)[C@H](O)c1ccccc1 (relative stereo) [drawing 8 (DL-threo)]")
"80 to 100%"
